Listed next: entries and their corresponding abundance fitness.
B1: POU domain, class 2, transcription factor 2, residues 200 to 269; numbered along this chain, P09086 (parent)
chain: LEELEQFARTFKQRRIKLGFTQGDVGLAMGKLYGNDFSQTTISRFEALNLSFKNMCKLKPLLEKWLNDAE

Variants of: B1
Assay: abundance fitness (aPCA) (normalised: wild type 0, dead -1); higher = more abundant; growth selection in yeast, the domain comes from the species named
Settings: Homo sapiens

Example cases with answers are listed next.
* LEELEQFARTFKQRRIKLGFTQGDVGLAMGKLYGNVFSQTTISRFEALNLSFKNMCKLKPLLEKWLNDAE | -0.048
* LEELEQFARTFKQRRIKLGFTQGDVGLAMGKLYGNDFSQTQISRFEALNLSFKNMCKLKPLLEKWLNDAE | -0.061
* LEELEQFARTFKQRRIKLGFTQGDVGLAMGKLYGNDFSQTTISRFEALNLSFANMCKLKPLLEKWLNDAE | 0.004
* LEELEQFARTFKQRRIKLGFTQGDVGLAMGKLYGNDFMQTTISRFEALNLSFKNMCKLKPLLEKWLNDAE | -0.085
* LEELEQVARTFKQRRIKLGFTQGDVGLAMGKLYGNDFSQTTISRFEALNLSFKNMCKLKPLLEKWLNDAE | -0.237

Kindly consider the entry below.
Ask: // abundance fitness lookup, key: "LEELEQFARTFKQRRIKLGFTQGDVGLAMGKLYGNDFSQTTISRFEALNLSFKNMCKLKPLLEKWLNDAV"
Result: -0.035

This collection of values is drawn from the Human Domainome abundance scans (Beltran et al. 2025).
